test: NCI Yeast Anticancer Drug Screen. Data for the rad50 strain (AID 155);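 also: 0% = growth of vehicle-only cultures of the same strain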; settings: S. cerevisiae rad50 strain growth inhibition; at 50.0 µM; stronger effect = higher value
The panel holds about 79,000 compounds, 15% with a hit somewhere; the sample as a whole holds those more often.
Label rule, in plain words: growth inhibition of 10% and up is Met, under 10% is Not met.

INSERT INTO results (molecule, categorylabel) VALUES
  ('CS(=O)(=O)NC(=NCCOS(C)(=O)=O)N[N+](=O)[O-]', 'Not met'),
  ('[N-]=[N+]=NC12CC3CC(CC(C3)C1)C2', 'Not met'),
  ('CC(=O)Nc1ccc([As](=O)(O)O)cc1[N+](=O)[O-]', 'Not met'),
  ('O=S(=O)(F)c1cccc(Cl)c1C[P+](c1ccccc1)(c1ccccc1)c1ccccc1', 'Met'),
  ('NC(=Nc1ccccc1)Nc1ccccc1 (tested in a mixture with another compound)', 'Not met'),
  ('c1ccc(P2c3ccccc3Oc3ccccc32)cc1', 'Met'),
  ('CN(C)c1ccc(C=C2C(=O)NC(=O)NC2=O)cc1', 'Met'),
  ('CCC1NCCc2cc(OC)c(O)cc21 (stereo unspecified)', 'Not met'),
  ('N#CC(CCN1CCC(Nc2ccccc2)(c2nnnn2C2CCCCC2)CC1)(c1ccccc1)c1ccccc1', 'Not met'),
  ('OC(c1ccc2ccccc2n1)C1CCCCN1 (stereo unspecified)', 'Met'),
  ('CCN=C=NCCCN(C)C', 'Not met');

* * *

assay: NCI Yeast Anticancer Drug Screen. Data for the sgs1 mgt1 strain (AID 161);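 also: 0% = growth of cultures given vehicle only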; conditions: S. cerevisiae sgs1 mgt1 strain, at 50.0 µM, stronger effect = higher value
This is part of a sample that, as a whole, favours compounds with a hit. Of some 79,000 tested, about 15% had one in any assay.
quantityKind: growth inhibition (%)

INSERT INTO assay_data (compound, quantitykind, measurementunits, resultvalue) VALUES
  ('COc1cc(CC(N)c2ccccc2)ccc1O (centres undefined)', 'growth inhibition', '%', 11.8),
  ('CC1(Cl)C(=O)NC(=O)NC1O (centres undefined)', 'growth inhibition', '%', 12.2),
  ('CCCCCCCNC(c1ccccc1)C(O)c1ccccc1 (centres undefined)', 'growth inhibition', '%', 12.1),
  ('CCCCOP(=O)(Cc1ccccc1)Oc1ccccc1 (centres undefined)', 'growth inhibition', '%', 68.8),
  ('CC(C)(C)NCC(COc1ccc([N+](=O)[O-])cc1)OP(c1ccccc1)c1ccccc1 (centres undefined)', 'growth inhibition', '%', 2.25),
  ('N=C(N)N.[O]=[Cr](=[O])([OH])[OH]', 'growth inhibition', '%', 37.5),
  ('O=C(NCCN1CCOCC1)c1cc(N(CCCl)CCCl)c([N+](=O)[O-])cc1[N+](=O)[O-]', 'growth inhibition', '%', 16.6),
  ('CN(C)CCNc1nc2c(no[n+]2[O-])c2ccccc12', 'growth inhibition', '%', -14.3),
  ('CC1(C)c2ccccc2C(c2ccccc2)(c2ccccc2)[N+]1(C)C', 'growth inhibition', '%', 52.2),
  ('C[As+](c1ccccc1)(c1ccccc1)c1cccc2ccccc12', 'growth inhibition', '%', 21.2),
  ('COC(C)C(O)(C(=O)OCC1=CCN2CCC(O)C12)C(C)(C)O (centres undefined)', 'growth inhibition', '%', 21.4),
  ('CC(C)(C)N.[O]=[Cr](=[O])([OH])[OH]', 'growth inhibition', '%', 29.1),
  ('Oc1c(Cl)cc(Cl)cc1C1N(Cc2ccc(N(CCCl)CCCl)cc2Cl)CCCN1Cc1ccc(N(CCCl)CCCl)cc1Cl', 'growth inhibition', '%', 18.6),
  ('CC1OC(OC2C(O)C(O)C(O)C(O)C2O)C(N)CC1N=C(N)C(=O)O (centres undefined)', 'growth inhibition', '%', -18.1),
  ('[CH3][Sn]([CH3])([Br])[CH2]CCBr', 'growth inhibition', '%', 89.2),
  ('[Se]=[Mo]=[Se]', 'growth inhibition', '%', -29.9),
  ('O=NNc1cccc(NN=O)n1', 'growth inhibition', '%', -34.1),
  ('Cn1nnnc1NC#N', 'growth inhibition', '%', 1),
  ('S=P(C1CCCCC1)(C1CCCCC1)C(c1cccnc1)N1CCCC1 (centres undefined)', 'growth inhibition', '%', -6.3),
  ('O=P(c1ccccc1)(c1ccccc1)c1ccccc1.O=P(c1ccccc1)(c1ccccc1)c1ccccc1.O=S(=O)(O)O.[Fe]', 'growth inhibition', '%', 9.35),
  ('CCCCCCCCCCCCCCCC(=O)OCC(C[As](=O)(O)O)OC(=O)CCCCCCCCCCCCCCC (centres undefined)', 'growth inhibition', '%', -15.1),
  ('CC1OC(n2cc(C(N)=O)c3c(N)ncnc32)C(O)C1O (centres undefined)', 'growth inhibition', '%', 3.75),
  ('COc1ccc(N=NC(=O)NC(CC(C)C)C(=O)NC(C)C(=O)O)cc1 (centres undefined)', 'growth inhibition', '%', -8.5),
  ('CCCCS(=O)CCC(N)P(=O)(O)O (centres undefined)', 'growth inhibition', '%', -52.8);
